Tested on: HuCC-T1 cell line
Test method notes: Cell TitreGlo cell viability, HuCC-T1 cholangiocarcinoma cells
Format: cell-based, human
Protocol conditions: IC50 in H69 normal cells / IC50 in HuCCT-1; panobinostat + secondary drug at IC20
Rule: Therapeutic index Combination under 0.8 gives not satisfied, otherwise satisfied.

{"Compound": "CC(C)C[C@H](NC(=O)[C@H](Cc1ccccc1)NC(=O)c1cnccn1)B(O)O [Bortezomib]", "Class assignment": "not satisfied"}
{"Compound": "CC[C@@]1(O)C(=O)OCc2c1cc1n(c2=O)Cc2cc3c(CN(C)C)c(O)ccc3nc2-1 [Topotecan]", "Class assignment": "satisfied"}
{"Compound": "CN(Cc1cnc2nc(N)nc(N)c2n1)c1ccc(C(=O)N[C@@H](CCC(=O)O)C(=O)O)cc1 [Methotrexate]", "Class assignment": "satisfied"}
{"Compound": "Cc1nc(Nc2ncc(C(=O)Nc3c(C)cccc3Cl)s2)cc(N2CCN(CCO)CC2)n1 [Dasatinib]", "Class assignment": "satisfied"}
